Tested on: Staphylococcus aureus
assay.method.text: Antibacterial activity against Staphylococcus aureus ATCC 6538 assessed as growth inhibition at 1000 ug/mL after 24 hrs by disk diffusion assay
Format: functional
condition: ATCC 6538, 24 h, read-out: DIZ
Lab note: compare zone of inhibition at 1000 µg/mL against 8 mm. Equal or greater, write Yes. Smaller, write No.

Recorded results for 3 compounds are shown here.
N#Cc1c(Cl)c(Cl)c(Nc2ccc(Nc3ccc(F)cc3)c3c(=O)[nH]cnc23)c(C#N)c1Cl | Yes
N#Cc1c(Cl)c(Cl)c(Nc2ccc(Nc3ccccc3)c3c(=O)[nH]cnc23)c(C#N)c1Cl | Yes
CCn1cc(C(=O)O)c(=O)c2cc(F)c(N3CCNCC3)cc21 | Yes

Task item: Hi, just wondering whether N#Cc1c(Cl)c(Cl)c(Cl)c(C#N)c1Cl shows zone of inhibition at 1000 µg/mL of 8 mm or higher.
Reply: Yes

Task item: Reported zone of inhibition at 1000 µg/mL reaches at least 8 mm for Cc1ccc(Nc2ccc(N)c3nc[nH]c(=O)c23)cc1C ?
Reply: No

Task item: Hi, just wondering whether Cc1ccc(N)c(Nc2ccc([N+](=O)[O-])c3nc[nH]c(=O)c23)c1 shows zone of inhibition at 1000 µg/mL of 8 mm or higher.
Reply: No

###

Test system: Escherichia coli
assay.method.text: Antibacterial activity against Escherichia coli ATCC 8099 assessed as growth inhibition after 24 hrs by liquid dilution method
Type: functional
condition: ATCC 8099, 24 h
measurement.type: MIC (µg/mL)
Your answer is read as µg/mL, so omit the unit and give the number.

Would you please look over these solved cases?
N#Cc1c(F)c(Cl)c(Nc2ccc(Nc3ccc(Cl)cc3)c3c(=O)[nH]cnc23)c(C#N)c1F | 208
N#Cc1c(Cl)c(Cl)c(Nc2ccc(Nc3ccc(Cl)cc3)c3c(=O)[nH]cnc23)c(C#N)c1Cl | 333
CN(C)c1ccc(Nc2c(Cl)c(Cl)c(C#N)c(Cl)c2C#N)c2nc[nH]c(=O)c12 | 1.3
Cc1cccc(Nc2ccc(Nc3c(Cl)c(F)c(C#N)c(F)c3C#N)c3nc[nH]c(=O)c23)c1 | 500

Task item: Identify measured MIC obtained with Escherichia coli for CCn1cc(C(=O)O)c(=O)c2cc(F)c(N3CCNCC3)cc21 [NORFLOXACIN] .
Reply: 0.5

Task item: Print Escherichia coli MIC for Cc1ccccc1Nc1ccc(Nc2c(Cl)c(F)c(C#N)c(F)c2C#N)c2nc[nH]c(=O)c12 .
Reply: 208

Task item: GET MIC where system = Escherichia coli and item = Cc1ccc(N)c(Nc2ccc([N+](=O)[O-])c3nc[nH]c(=O)c23)c1
Reply: 20.8

###

Test system: Candida albicans
assay.method.text: Antifungal activity against Candida albicans ATCC 10231 assessed as growth inhibition after 24 hrs by liquid dilution method
Format: functional
condition: ATCC 10231, 24 h
measurement.type: MIC (µg/mL)
Record the value in µg/mL, omitting the unit from your answer.

OC(Cn1cncn1)(Cn1cncn1)c1ccc(F)cc1F | 2

Task item: Give the reported MIC for this molecule. N#Cc1c(Cl)c(Cl)c(Nc2ccc(Nc3ccc(F)cc3)c3c(=O)[nH]cnc23)c(C#N)c1Cl
Reply: 1.7

Task item: Give recorded MIC. Cc1cc(C)cc(Nc2ccc(Nc3c(Cl)c(Cl)c(C#N)c(Cl)c3C#N)c3nc[nH]c(=O)c23)c1
Reply: 5.2

Task item: Identify the reported MIC for the following entry. N#Cc1c(Cl)c(Cl)c(Nc2ccc(N3CCCCC3)c3c(=O)[nH]cnc23)c(C#N)c1Cl
Reply: 2.6

Task item: Tell me measured MIC for N#Cc1c(Cl)c(Cl)c(Cl)c(C#N)c1Cl please.
Reply: 0.7

Task item: Retrieve MIC measured for CN(C)c1ccc(Nc2c(Cl)c(Cl)c(C#N)c(Cl)c2C#N)c2nc[nH]c(=O)c12 and print it.
Reply: 0.5

Task item: Query MIC for N#Cc1c(Cl)c(Cl)c(Nc2ccc(Nc3cccc(Cl)c3)c3c(=O)[nH]cnc23)c(C#N)c1Cl
Reply: 1.7
